system: DU-145; assay: Antiproliferative activity against human DU145 cells assessed as reduction in cell viability measured after 48 hrs by MTT assay; format: functional, cell-based; conditions: DU-145, 48 h
// NB: equality with 20 µM counts as not fulfilled; only IC50 strictly below is fulfilled

compound: CCOC(=O)CCC(=O)O/N=C1\C=C2C[C@H](C)[C@@]3(C)Cc4cc(OC)c(OC)c(OC)c4C23C(OC)=C1OC (some centres undefined)
measured_on: DU-145
assigned_class: not fulfilled
--
compound: CCCCC(=O)O/N=C1\C=C2C[C@H](C)[C@@]3(C)Cc4cc(OC)c(OC)c(OC)c4C23C(OC)=C1OC (some centres undefined)
measured_on: DU-145
assigned_class: not fulfilled
--
compound: COC1=C(OC)C23C(=C/C1=N\OC(=O)C1CC1)C[C@H](C)[C@@]2(C)Cc1cc(OC)c(OC)c(OC)c13 (some centres undefined)
measured_on: DU-145
assigned_class: not fulfilled
--
compound: CCCCCCCCCC(=O)O/N=C1\C=C2C[C@H](C)[C@@]3(C)Cc4cc(OC)c(OC)c(OC)c4C23C(OC)=C1OC (some centres undefined)
measured_on: DU-145
assigned_class: fulfilled
--
compound: COC1=C(OC)C23C(=C/C1=N\O)C[C@H](C)[C@@]2(C)Cc1cc(OC)c(OC)c(OC)c13 (some centres undefined)
measured_on: DU-145
assigned_class: fulfilled
--
compound: COC1=C(OC)C23C(=C/C1=N\OC(=O)c1c(Cl)cc(Cl)cc1Cl)C[C@H](C)[C@@]2(C)Cc1cc(OC)c(OC)c(OC)c13 (some centres undefined)
measured_on: DU-145
assigned_class: not fulfilled
--
compound: COC1=C(OC)C23C(=CC1=O)C[C@H](C)[C@@]2(C)Cc1cc(OC)c(OC)c(OC)c13 (some centres undefined)
measured_on: DU-145
assigned_class: fulfilled
--
compound: COC1=C(OC)C23C(=C/C1=N\OC(=O)C(C)C)C[C@H](C)[C@@]2(C)Cc1cc(OC)c(OC)c(OC)c13 (some centres undefined)
measured_on: DU-145
assigned_class: not fulfilled

// data source = ChEMBL document CHEMBL4622952
